# experimental.protocol: Pharmacokinetics after administration of the subject combination (steady state)
# condition.label: human, in vivo, mean elimination half-life, following 8 days of administration of the subject combination in extensive metabolizers
measured.property: half-life

Fill in: half-life of COc1ccc2c(c1)[C@]13CCCC[C@@H]1[C@H](C2)N(C)CC3 [dextromethorphan] is ___
~22 h

---

# Test system: plasma protein
# experimental.protocol: Plasma protein binding
measured.property: fraction unbound

Fill in: fraction unbound of "COc1ccc2c(c1)[C@]13CCCC[C@@H]1[C@H](C2)N(C)CC3" is ___
0.3 to 0.4

---

# experimental.protocol: Pharmacokinetics after administration of the subject combination (steady state)
# condition.label: human, in vivo, mean elimination half-life, subject combination
measured.property: half-life (min)
Lab book: enter the figure in min, no units written.

Fill in: half-life of "COc1ccc2c(c1)[C@]13CCCC[C@@H]1[C@H](C2)N(C)CC3" is ___
1320

// provenance: patent US11839612B1
